Please go through the items and note down their TGI.
# Tested on: UO-31 renal
# Assay text: NCI tumour cell line growth inhibition, 48 h

| Compound | TGI |
| --- | --- |
| CC(C)CC(=O)OC[n+]1cccc(-c2c(COC(=O)NC(C)C)c(COC(=O)NC(C)C)c3n2CCC3)c1 | 91.6 µM |
| CCOC(=O)C1=C(C)C2C3C(=O)NC(=O)C3C1(C)C1C(=O)NC(=O)C21 (centres undefined) | > 100 µM |
| O=c1c2c([nH]c3nccn13)CCCC2 | > 10 µM |
| COC(=O)C1=C(C(=O)OC)C(C(=O)c2ccccc2)N2N=C(c3ccc(Cl)cc3)C=CC12 (centres undefined) | > 100 µM |
| Cc1nc(Nc2ccccc2)sc1C(=O)NNC(N)=O | > 100 µM |
| O=C(CSc1nc2sc3c(c2c(=O)n1-c1ccccc1)CCCCC3)N/N=C/c1ccc(F)cc1 | > 100 µM |
| O=C(/C=C/c1c(O)c2ccccc2[nH]c1=O)CC(=O)C(=O)Nc1cccc(O)c1 | > 100 µM |
| OC1OC(c2ccc[nH]2)C(F)(F)C(F)(F)C1(F)F (centres undefined) | > 100 µM |

Query block: // Input: CC1=C([Se]CC(OC(=O)[C@@H](CSSC(C)(C)C)NC(=O)C(C)(C)C)C(=O)NCCCCCC(=O)OCc2ccccc2)C(=O)c2ccccc2C1=O (some centres undefined) . Output its TGI only.
Result block: 3.16 µM

# credit: PubChem BioAssay (NCI)
